Where do these numbers come from? They come from the supplement of paper PMC9732359.

test: protein stability index of a GFP-peptide fusion (yeast GPS) (PSI 1-4); higher = more stable; sorted into four equal gates, so the index is relative within each strain; settings: doa10∆
Would you kindly list protein stability index for each of these sequences?
Answers are plain numbers.

[[record]]
sequence_text = "FIESIVVDFKNKENDNV [SNF12]"
obs_value = 2.55

[[record]]
sequence_text = "SSRTKFWSFLDSLIFKD [YJL039C/NUP192]"
obs_value = 2.78


# next sequence below
Request: What value of protein stability index has been reported for the following sequence? KTSKRTKRWYKNAGLGF [RPS11A]
Result: 3.3

###

experiment: protein stability index of a GFP-peptide fusion (yeast GPS) (PSI 1-4); higher = more stable; sorted into four equal gates, so the index is relative within each strain; settings: san1∆
attribute-measured: protein stability index
Answers are plain numbers.

These solved cases illustrate the format of a correct answer.
[[record]]
sequence_text = "AIGYEPLSLTHRDKNKM [DIS3]"
attribute_measured = "protein stability index"
obs_value = 2.88

[[record]]
sequence_text = "ALTVQEVLNRVASRHPS [YDL116W/NUP84]"
attribute_measured = "protein stability index"
obs_value = 3.12

[[record]]
sequence_text = "KVIKVLGRTGSRGGVTQ [RPS28A]"
attribute_measured = "protein stability index"
obs_value = 2.73

[[record]]
sequence_text = "SSNCHVRQKIKTLKRMI [POP1]"
attribute_measured = "protein stability index"
obs_value = 1.42

[[record]]
sequence_text = "KKAKLVLIANDVDPIEL [RPL8A]"
attribute_measured = "protein stability index"
obs_value = 3.09

[[record]]
sequence_text = "NEEAEARRLKNRAARDR [RPL19A]"
attribute_measured = "protein stability index"
obs_value = 2.89

[[record]]
sequence_text = "PLINLALIDTEFANFEL [YML103C/NUP188]"
attribute_measured = "protein stability index"
obs_value = 2.5

[[record]]
sequence_text = "ADVTSNIDSSAQFTFGK [YOR098C/NUP1]"
attribute_measured = "protein stability index"
obs_value = 2.89


Fill in protein stability index for each of the 5 sequences listed.
1. EQDALFITRLAQGLLHL [RPN1]
2. SLSEFARRRQPTDQNNQ [SNF2]
3. DRIIHTWRTQLAASEIG [ECM29]
4. DELRKQELISKAFTNWN [ISW2]
5. DNATLTELVDKANIFQV [SSN2]

Result:
1. 2.38
2. 3.1
3. 1.65
4. 2.4
5. 3.21

Give me protein stability index for each of these sequences, listed below.
1. VTLNKYCSGNIYDFHKM [YJL039C/NUP192]
2. IVGKSNVLVTMPVAPTM [YMR129W/POM152]
3. GKIDEAADILCELQVET [RPN5]
4. KLLKQPKFDVGALMALH [RPS1A]

Result:
2.91
2.07
3.1
1.9

###

experiment: protein stability index of a GFP-peptide fusion (yeast GPS) (PSI 1-4); higher = more stable; sorted into four equal gates, so the index is relative within each strain; details: san1∆
attribute-measured: protein stability index

Give one value of protein stability index per listed sequence.
1. LIASHYGVSFFTIQSFV [BRR2]
2. LDTYLPEDLNSLYIYYL [SIR2]
3. KKHGKTDYFLPKNYSLH [YJL039C/NUP192]
4. KNSFQQALQMKAMDIPI [SWP82]
5. RKNDNANDHDESIDVDM [SMC3]
6. KLLKSLLLNYLELIGVL [MED7]
7. FAGSNNQPHQSQTPSFN [YOR098C/NUP1]
8. SDINQNDDSSSMNATMR [YDL088C/ASM4]

Result:
1: 1.48; 2: 2.54; 3: 2.71; 4: 1.37; 5: 3.32; 6: 1.14; 7: 2.73; 8: 2.76

Could you tell me protein stability index for each of these sequences? They are listed below.
1. SQIIARNEEILRDIGEC [SMC2]
2. KDRISSCSSKEKTLVLE [SMC4]
3. SEFLNVPFESLQGVTYP [YIL149C/MLP2]
4. TKKTITPMGGFVHYGEI [RPL3]

Result:
[2.85, 2.45, 2.72, 3.08]

# batch: return protein stability index for each of the 4 sequences below
1. QDDADPMVSVMKMDKSP [RPT2]
2. LVRELYQWRDLIARRDD [RRP6]
3. SGRNIHLAVVCVDDNSK [SSN2]
4. DVEVDDDFTNELKAELD [SEM1]

Result:
[1.29, 2.65, 1.48, 3.54]

Hey, can you go through the list below and give me protein stability index for every item?
1. SDIESLEALMDILLCYQ [SRB8]
2. RELILAKKQNYKLTNDE [YCG1]
3. HATVVPPEEFSNTIDEL [SRB7]
4. FDTSIKLDIISDPESER [RPN14]
5. GQQSVEGKRIAFGFVDR [RPO21]

Result:
1: 3.03; 2: 3.23; 3: 2.89; 4: 2.59; 5: 3.44

Request: Any idea what its protein stability index is? The sequence is DRKIQGWLGALTMANLP [ARP7]
Result: 2.65

###

assay: protein stability index of a GFP-peptide fusion (yeast GPS) (PSI 1-4); higher = more stable; sorted into four equal gates, so the index is relative within each strain; details: ubr1∆
Answer each item with its documented protein stability index.
Give bare numbers.

[[record]]
sequence_text = "SKYGMLLLRCDDRVDKK [POP3]"
obs_value = 3.09


Batch lookup, protein stability index per entry.
1. SLKNDLPQFRSSIQESL [ECM29]
2. FPKIDSLAQNDCNSALD [RPN5]
3. EPKKPSFTFASSKTSQP [YOR098C/NUP1]
4. SNMLGSNEDVMMTGAEQ [RPB3]
5. APEQQVQQFAQLPVGFK [UBP6]
6. SDNSVSVRLQVTKILPH [IRR1]
7. STGPTGAVSLNPSITRL [RRP4]
8. STQPSFAWSKPSTGSNL [YGR119C/NUP57]

Result:
1. 3.07
2. 2.93
3. 3.04
4. 3.08
5. 2.99
6. 3.04
7. 3.06
8. 2.98

###

Kindly state protein stability index for each of the entries shown.
test: protein stability index of a GFP-peptide fusion (yeast GPS) (PSI 1-4); higher = more stable; sorted into four equal gates, so the index is relative within each strain; conditions: pdr5∆
Give bare numbers.

[[record]]
sequence_text = "VLAAQSIGEPATQMTLN [RPO21]"
attribute_measured = "protein stability index"
obs_value = 3

[[record]]
sequence_text = "GIGSLTDLMSIVQELLD [RPC34]"
attribute_measured = "protein stability index"
obs_value = 2.91

[[record]]
sequence_text = "LQLETPAEVGRAIRSEK [BRR2]"
attribute_measured = "protein stability index"
obs_value = 2.92


// each sequence listed below needs its protein stability index
1. EHFSHFGHIMEDFQVLR [YDL088C/ASM4]
2. REIDALKKQLHVSHEAM [YIL149C/MLP2]

Result:
[2.92, 2.97]

###

test: protein stability index of a GFP-peptide fusion (yeast GPS) (PSI 1-4); higher = more stable; sorted into four equal gates, so the index is relative within each strain; conditions: san1∆
Hi there, I'd appreciate the recorded protein stability index for every entry that follows.
Numbers only.

Reference set, count: 3
[[record]]
sequence_text = "ITYTPVRHGRAGATTSR [RPS15]"
obs_value = 2.58

[[record]]
sequence_text = "SGWTPFHIACSVGNLEV [NAS6]"
obs_value = 1.68

[[record]]
sequence_text = "VDPLKSLEDKILRMGAF [RRI1]"
obs_value = 2.88


Answer for every listed entry: what is its protein stability index? The entries follow.
1. LNGREVKAILMQRHVKV [RPS4A]
2. CMEVASAFMKFSKAIEW [BRR2]

Result:
1. 1.39
2. 2.42

Dear colleague, could you send me protein stability index for each of the items below? Thanks.
1. EAPAGNIDTITDAMTES [MCD1]
2. MEYLKSSKSLDLNTRIS [RPN5]

Result:
1. 2.96
2. 2.34

###

test: protein stability index of a GFP-peptide fusion (yeast GPS) (PSI 1-4); higher = more stable; sorted into four equal gates, so the index is relative within each strain; conditions: san1∆
For each entry below, report its protein stability index value.
Answers are plain numbers.

[[record]]
sequence_text = "DIDGIMDNPRKLSKILR [SNU114]"
obs_value = 2.94

[[record]]
sequence_text = "TLDYAERHGYIRGIVKQ [RPL2A]"
obs_value = 1.71

[[record]]
sequence_text = "EISTSKKNNLEFGTYGK [RPN14]"
obs_value = 2.17

[[record]]
sequence_text = "CEISGSIEQLRNVVEDI [BRN1]"
obs_value = 3.09

[[record]]
sequence_text = "NEKRYATASAIAATAVA [RPL4A]"
obs_value = 1.74


For each listed entry, give its protein stability index.
1. GIPPPYDKKKRVVVPQA [RPL16B]
2. LGVKSRLLEKSELPDIY [SNF2]
3. GMLAMASLHSKELTRIP [MED4]

Result:
1.99
3.05
2.27
